Tested on: HCT-116
Experiment: Antiproliferative activity against human HCT-116 cells assessed as reduction in cell viability
Type: functional, cell-based
Entries and their measured IC50 follow.
measurement-type: IC50 (µM)

[
  {
    "smiles-repr": "Nc1nc2cc(-c3nn(CCCCCCC(=O)NO)c4ncnc(N)c34)ccc2o1",
    "measurement-type": "IC50",
    "relation-symbol": "=",
    "value-reported": 3.78
  },
  {
    "smiles-repr": "Nc1nc2cc(-c3nn(CC4CCN(c5ncc(C(=O)NO)cn5)CC4)c4ncnc(N)c34)ccc2o1",
    "measurement-type": "IC50",
    "relation-symbol": "=",
    "value-reported": 3.85
  },
  {
    "smiles-repr": "Nc1nc2cc(-c3nn(CC4CCN(C(=O)c5ccc(C(=O)NO)s5)CC4)c4ncnc(N)c34)ccc2o1",
    "measurement-type": "IC50",
    "relation-symbol": ">",
    "value-reported": 10
  }
]

###

Target: Histone deacetylase 8 (Homo sapiens)
Sequence (Q9BY41 whole entry): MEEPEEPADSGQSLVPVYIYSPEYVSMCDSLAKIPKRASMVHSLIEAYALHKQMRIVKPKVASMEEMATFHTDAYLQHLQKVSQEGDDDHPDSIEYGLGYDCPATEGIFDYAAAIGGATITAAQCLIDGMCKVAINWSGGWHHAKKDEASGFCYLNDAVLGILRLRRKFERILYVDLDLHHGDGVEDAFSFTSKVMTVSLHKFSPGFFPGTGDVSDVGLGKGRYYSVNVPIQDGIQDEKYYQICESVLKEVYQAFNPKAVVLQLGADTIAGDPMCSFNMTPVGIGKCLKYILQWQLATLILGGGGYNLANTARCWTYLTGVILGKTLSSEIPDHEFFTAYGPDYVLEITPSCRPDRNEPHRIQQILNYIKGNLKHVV
pIC50: −log10 of the molar value.
Reported pIC50 values are given for each entry in this list.

[
  {
    "smiles-repr": "Nc1nc2cc(-c3nn(CCCCCCC(=O)NO)c4ncnc(N)c34)ccc2o1",
    "pIC50": 7.68
  },
  {
    "smiles-repr": "Nc1nc2cc(-c3nn(CC4CCN(c5ncc(C(=O)NO)cn5)CC4)c4ncnc(N)c34)ccc2o1",
    "pIC50": 7.57
  }
]

###

Molecular target: Serine/threonine-protein kinase mTOR (Homo sapiens)
Parameter IC50: see the listing below.

[
  {
    "smiles-repr": "Nc1nc2cc(-c3nn(CCCCCCC(=O)NO)c4ncnc(N)c34)ccc2o1",
    "relation-symbol": "=",
    "IC50 / nM": 1.7
  },
  {
    "smiles-repr": "Nc1ccc(-c2nn(CCCCCCC(=O)NO)c3ncnc(N)c23)cn1",
    "relation-symbol": "=",
    "IC50 / nM": 151
  },
  {
    "smiles-repr": "Nc1nc2cc(-c3nn(Cc4ccc(C(=O)NO)cn4)c4ncnc(N)c34)ccc2o1",
    "relation-symbol": "=",
    "IC50 / nM": 25
  },
  {
    "smiles-repr": "Nc1nc2cc(-c3nn(CC4CCN(C(=O)CCCCC(=O)NO)CC4)c4ncnc(N)c34)ccc2o1",
    "relation-symbol": "=",
    "IC50 / nM": 1.9
  },
  {
    "smiles-repr": "Nc1nc2cc(-c3nn(CC4CCN(C(=O)c5ccc(C(=O)NO)cc5)CC4)c4ncnc(N)c34)ccc2o1",
    "relation-symbol": "=",
    "IC50 / nM": 0.84
  },
  {
    "smiles-repr": "Nc1nc2cc(-c3nn(CCCCC(=O)NO)c4ncnc(N)c34)ccc2o1",
    "relation-symbol": "=",
    "IC50 / nM": 3.76
  },
  {
    "smiles-repr": "Nc1ncc(-c2nn(CCCCCCC(=O)NO)c3ncnc(N)c23)cn1",
    "relation-symbol": ">",
    "IC50 / nM": 1000
  },
  {
    "smiles-repr": "Nc1ncc(-c2nn(CCCCC(=O)NO)c3ncnc(N)c23)cn1",
    "relation-symbol": ">",
    "IC50 / nM": 1000
  }
]
